Tested on: eosinophils
MEASUREMENT_DESCRIPTION: Eosinophil shape change assay with human plasma
Assay type: cell-based
MEASUREMENT_CONDITIONS: Homo sapiens, Eosinophil, human plasma (50%), PGD2 100 nM activation, antagonistic activity
READOUT_TYPE: IC50 (µM)

Use the examples below as a reference point.
- MOLECULE: "COc1ccc(CC(=O)O)cc1-c1ccc(F)c2c1CN(C(=O)OCc1ccc(F)cc1)CC2 [Example 139]"
  RECORDED_NUMBER: 0.097
- MOLECULE: "COc1ccc(CC(=O)O)cc1-c1ccc(F)c2c1CN(C(=O)[C@@H]1C[C@H]1c1cccc(F)c1)CC2 (racemic) [Example 48]"
  RECORDED_NUMBER: 0.042
- MOLECULE: "CCOc1ccc(CC(=O)O)cc1-c1ccc(F)c2c1CN(C(=O)NCc1ccccc1)CC2 [Example 438]"
  RECORDED_NUMBER: 0.014

A. COc1ccc(CC(=O)O)cc1-c1ccc(C#N)c2c1CN(C(=O)OCc1ccccc1)CC2 [Example 169]
B. COc1ccc(CC(=O)O)cc1-c1cc(F)c(F)c2c1CN(C(=O)OCc1ccccc1)CC2 [Example 31]
C. CCOc1cc(CC(=O)O)ccc1-c1ccc(F)c2c1CN(C(=O)CCc1cccc(C)n1)CC2 [Example 321]
D. COc1ccc(CC(=O)O)cc1-c1ccc(F)c2c1CN(C(=O)CC(C)(C)c1ccccc1)CC2 [Example 108]
hey, can you rank those molecules up there by IC50? biggest number first please Order the labels as requested and list them.
B, A, D, C
